TEST TARGET: Interleukin-1 receptor-like 1 (Homo sapiens) (UniProt Q01638)
Sequence (Q01638 whole entry, looked up): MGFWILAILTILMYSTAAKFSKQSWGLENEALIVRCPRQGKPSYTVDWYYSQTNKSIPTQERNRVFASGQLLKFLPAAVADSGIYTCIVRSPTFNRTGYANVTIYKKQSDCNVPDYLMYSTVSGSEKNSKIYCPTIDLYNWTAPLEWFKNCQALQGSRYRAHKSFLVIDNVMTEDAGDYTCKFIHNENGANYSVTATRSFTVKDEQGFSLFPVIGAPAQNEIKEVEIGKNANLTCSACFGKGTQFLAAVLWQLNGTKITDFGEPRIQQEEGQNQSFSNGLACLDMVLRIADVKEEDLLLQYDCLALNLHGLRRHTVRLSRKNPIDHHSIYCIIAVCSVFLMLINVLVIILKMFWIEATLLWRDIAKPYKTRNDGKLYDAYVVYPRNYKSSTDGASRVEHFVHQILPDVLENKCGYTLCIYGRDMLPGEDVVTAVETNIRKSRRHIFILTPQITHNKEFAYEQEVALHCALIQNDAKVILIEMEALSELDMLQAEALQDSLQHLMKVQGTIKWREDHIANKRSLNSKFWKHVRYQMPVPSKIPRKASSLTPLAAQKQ
EXPERIMENTAL PROTOCOL: inhibitors of human ST2 (IL1RL1) binding to IL-33, primary screen, biochemical, AlphaLISA (AID 1259354)
EXPERIMENTAL CONTEXT: AlphaLISA ST2-Fc/biotin-IL-33 interaction, 1 h; at 17 µM
In all, about 78,000 compounds went through this assay and about 1,800 (2.3%) were called active. Inconclusive results (about 27%) are left out. Rule as the data show it: active = inhibition above about 30%; inconclusive = mostly about 10% to 28%; inactive = weaker than that. Many of the other results were omitted from the sample, so actives are more common in it than they were.
Give one outcome, nothing more. List: True for active, False for inactive

Some solved entries appear below for comparison.
>>> assigned_category("CCc1ccc(CNC(=O)c2cc3cc4ccc(OC)cc4nc3o2)cc1")
"False"
>>> assigned_category("Fc1cccc(Cl)c1C1CC(c2ccccc2)Nc2ncnn21 (stereo unspecified)")
"False"

Assay result, entry Cc1ccc(NC(=O)CNCC(C)c2ccccc2)c(C)c1 (stereo unspecified) — outcome?
False

Another compound to look at: COCc1cc(CNC(=O)c2csc3c2CCCC3)[nH]n1
False

What do we get for COc1ccc(N2CN=c3s/c(=C\c4ccccn4)c(=O)n3C2)cc1 ?
True

----------
TEST TARGET: Interleukin-1 receptor-like 1 (Homo sapiens) (UniProt Q01638)
EXPERIMENTAL PROTOCOL: inhibitors of human ST2 (IL1RL1) binding to IL-33, primary screen, biochemical, AlphaLISA (AID 1259354)
EXPERIMENTAL CONTEXT: AlphaLISA ST2-Fc/biotin-IL-33 interaction, 1 h; at 17 µM
About 1,800 (2.3%) of roughly 78,000 compounds were called active. Not shown: some 27% with an inconclusive outcome. No stated cut-off is given here; in the data, active means inhibition above about 30%; inconclusive means mostly about 10% to 28%; inactive means weaker than that. The sample holds actives, similar compounds and a random draw of the others, so the mix is not that of the screen.
Output constraint: value belongs to active, inactive

>>> assigned_category("Cc1nc(CC(=O)NCCc2csc(-c3cccnc3)n2)cs1")
"inactive"

Look up the recorded call for CCc1ccc(S(=O)(=O)N=C2C=C(Nc3ccc(OC)cc3)C(=O)c3ccccc32)cc1 in this test.
active

Next up: COc1c(F)ccc(-c2nc(C(C)C)nn2-c2ccccn2)c1F
inactive

Entry to check: Cc1ccc(-c2cc(N3CCN(S(=O)(=O)c4cc(C)c(C)cc4C)CC3)ncn2)cc1
inactive

Same question, O=C(CN1CCCCC1)N1c2ccccc2Sc2ccc(C(F)(F)F)cc21 this time
inactive

And what about the compound N#Cc1c(N2CCCCCC2)ncc2cc3ccccc3nc12 ?
active

What about Cc1ccc(N(C(=O)c2ccccc2Br)C2C=CS(=O)(=O)C2)cc1C (stereo unspecified) ?
inactive

Then what about the compound O=C(Nc1nc2c(cc3c4c(cccc42)CC3)s1)c1ccc(S(=O)(=O)N2CCOCC2)cc1 ?
inactive

Cool, now OCc1ccc(CN2CCC(n3cc(C4CCCCC4)nn3)CC2)o1
inactive

Similarly, O=C1C(Nc2ccc(O)cc2)=C(n2nnc3ccccc32)C(=O)c2ccccc21 ?
active

What would you report for COc1ccc(Br)cc1C(=O)Nc1cccc(Cl)c1 ?
inactive

Same again, this time with Cc1c(F)cccc1NC(=O)C(C)Oc1ccc(Cl)cc1Cl (stereo unspecified)
inactive

----------
TEST TARGET: Interleukin-1 receptor-like 1 (Homo sapiens) (UniProt Q01638)
EXPERIMENTAL PROTOCOL: inhibitors of human ST2 (IL1RL1) binding to IL-33, primary screen, biochemical, AlphaLISA (AID 1259354)
EXPERIMENTAL CONTEXT: AlphaLISA ST2-Fc/biotin-IL-33 interaction, 1 h; at 17 µM
Screen size: about 78,000 compounds; about 1,800 (2.3%) were called active. Inconclusive results (about 27%) are left out. No stated cut-off is given here; in the data, active means inhibition above about 30%; inconclusive means mostly about 10% to 28%; inactive means weaker than that. The entries come from a sample that favours actives as a whole.
Give your call using only these classes: active, inactive

See these solved cases before continuing.
>>> assigned_category("O=C(Nc1nnc(-c2cccs2)o1)c1ccc(S(=O)(=O)N2CCCc3ccccc32)cc1")
"inactive"
>>> assigned_category("O=C(CCCn1cnnn1)N1CCOC(c2ccc(Cl)c(Cl)c2)C1 (centres undefined)")
"inactive"
>>> assigned_category("Cc1cc(C(=O)N(CC2CCN(C3Cc4ccccc4C3)CC2)CC2CCCO2)nc(C)n1 (centres undefined)")
"inactive"

# outcome recorded in this test, key = COc1ccc(C2=N/C(=C\c3ccc(C(C)C)cc3)C(=O)O2)cc1[N+](=O)[O-]
inactive

Subsequent entry: Cc1cc(NC(=O)C(NS(=O)(=O)c2cccs2)C(C)C)ccc1Br (centres undefined)
inactive

Also check COc1ccc(S(=O)(=O)Nc2ccc(Br)cc2)cc1
inactive

Repeat for the following molecule: CCCCN(CC)S(=O)(=O)c1ccc2[nH]c(=O)cc(C(=O)NC3CCCCC3C)c2c1 (centres undefined)
inactive

Also, N#Cc1c(-n2ncnc2-c2ccccc2)sc2c1CCCC2 please.
active

Similarly, CCC(C(=O)NCc1ccccc1Cl)c1ccccc1 (centres undefined) ?
inactive

Field entry: Cn1c(=O)c2c(nc(N3CCCCCC3)n2CC(O)COc2ccc(Cl)cc2)n(C)c1=O (centres undefined)
inactive

Moving on to Cn1c(CC2CCNCC2)nnc1SCCOc1ccc(Cl)cc1
inactive

Quick one: CCSc1ncc(CN2CC[C@@H](N(C)CCc3ccccn3)[C@H](O)C2)cn1
inactive
